# System: P30-OHKUBO
# measurement_protocol: selective drug sensitivity score (sDSS, relative to normal bone marrow) (sDSS (score)); higher = more potent and effective on the cell line relative to normal bone marrow cells;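 note: ALL cell lines in 384-well plates, five doses spanning 10,000-fold, each plate scaled between vehicle and 100 µmol/L benzalkonium chloride controls, sDSS an adapted area-under-curve metric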
# experimental_setup: 72 h
readout: selective drug sensitivity score

// recorded selective drug sensitivity score for CCC/C=C/C=C/C(=O)O[C@H]1/C(=C/C(=O)OC)C[C@H]2C[C@H]([C@@H](C)O)OC(=O)C[C@H](O)C[C@@H]3C[C@H](OC(C)=O)C(C)(C)[C@](O)(C[C@@H]4C/C(=C/C(=O)OC)C[C@H](/C=C/C(C)(C)[C@]1(O)O2)O4)O3 [Bryostatin_1] (top concentration 100 nM) : 20.2

// recorded selective drug sensitivity score for N#Cc1ccc(C(c2ccc(C#N)cc2)n2cncn2)cc1 [Letrozole] (top concentration 10000 nM) : -0.04

// recorded selective drug sensitivity score for CC(C)(C)c1cc(NC(=O)Nc2ccc(-c3cn4c(n3)sc3cc(OCCN5CCOCC5)ccc34)cc2)no1 [Quizartinib] (top concentration 1000 nM) : 0.68

###

# System: MOLT-16
# measurement_protocol: selective drug sensitivity score (sDSS, relative to normal bone marrow) (sDSS (score)); higher = more potent and effective on the cell line relative to normal bone marrow cells
# experimental_setup: 72 h
readout: selective drug sensitivity score
Please reply with the number alone, leaving off any unit.

// recorded selective drug sensitivity score for CC(=O)N(O)CCCCCNC(=O)CCC(=O)N(O)CCCCCNC(=O)CCC(=O)N(O)CCCCCN [Deferoxamine] (top concentration 10000 nM) : 6.26

// recorded selective drug sensitivity score for COc1ccc2[nH]cc(/C=C3\C(=O)Nc4ccc(NC(=O)CCN5CCCCC5)cc43)c2c1 (top concentration 50000 nM) : -2.32

// recorded selective drug sensitivity score for Cn1cc(C2=C(c3cn(C4CCN(Cc5ccccn5)CC4)c4ccccc34)C(=O)NC2=O)c2ccccc21 [Enzastaurin] (top concentration 10000 nM) : 4.66

###

# Tested on: LC4-1
# measurement_protocol: selective drug sensitivity score (sDSS, relative to normal bone marrow) (sDSS (score)); higher = more potent and effective on the cell line relative to normal bone marrow cells
# experimental_setup: 72 h
readout: selective drug sensitivity score

Form field, selective drug sensitivity score with LC4-1, item O=C(CCNC(=O)c1ccc(OC(F)(F)F)cc1)N[C@@H]1CCCc2ccccc21 [ML390] (top concentration 50000 nM) : 7.4

Form field, selective drug sensitivity score with LC4-1, item Cc1ccc(NC(=O)c2ccc(CN3CCN(C)CC3)cc2)cc1Nc1nc(-c2cccnc2)cs1 [Masitinib] (top concentration 10000 nM) : -2.18

Form field, selective drug sensitivity score with LC4-1, item O=C(/C=C\n1cnc(-c2cc(C(F)(F)F)cc(C(F)(F)F)c2)n1)NNc1ccccn1 [Verdinexor] (top concentration 1000 nM) : 1.94

Form field, selective drug sensitivity score with LC4-1, item O=C(/C=C/c1cccnc1)NCCCCC1CCN(C(=O)c2ccccc2)CC1 [Daporinad] (top concentration 1000 nM) : 14.2

###

# Tested on: HPB-ALL
# measurement_protocol: selective drug sensitivity score (sDSS, relative to normal bone marrow) (sDSS (score)); higher = more potent and effective on the cell line relative to normal bone marrow cells
# experimental_setup: 72 h
readout: selective drug sensitivity score
Please reply with the number alone, leaving off any unit.

// recorded selective drug sensitivity score for CC[C@]1(O)C[C@H]2CN(CCc3c([nH]c4ccccc34)[C@@](C(=O)OC)(c3cc4c(cc3OC)N(C=O)[C@H]3[C@@](O)(C(=O)OC)[C@H](OC(C)=O)[C@]5(CC)C=CCN6CC[C@]43[C@@H]65)C2)C1 [Vincristine] (top concentration 1000 nM) : 14.1

// recorded selective drug sensitivity score for CC(C)(O)CNc1nc(Nc2ccnc(C(F)(F)F)c2)nc(-c2cccc(C(F)(F)F)n2)n1 [Enasidenib] (top concentration 10000 nM) : -0.5

// recorded selective drug sensitivity score for O=C(CCCCCCC(=O)Nc1ccccc1)NO [Vorinostat] (top concentration 10000 nM) : 6

// recorded selective drug sensitivity score for Cc1ccc(NC(=O)c2ccc(CN3CC[C@H](N(C)C)C3)c(C(F)(F)F)c2)cc1Nc1nccc(-c2cncnc2)n1 [Bafetinib] (top concentration 1000 nM) : 0

// recorded selective drug sensitivity score for C1=N/C2=N/c3ccc(OCCN4CCCC4)c(c3)COC/C=C/COCc3cccc(c3)C(=C1)N2 [Pacritinib] (top concentration 10000 nM) : -5.7

// recorded selective drug sensitivity score for O=C(O)c1ccc(O)c2ncccc12 [IOX-1] (top concentration 100000 nM) : 2.94

// recorded selective drug sensitivity score for CNC(=O)c1ccccc1Sc1ccc2c(/C=C/c3ccccn3)n[nH]c2c1 [Axitinib] (top concentration 10000 nM) : 7.56

// recorded selective drug sensitivity score for CCS(=O)(=O)c1cccc(-c2cc(C(=O)NC3CCN(C)CC3)c(C)c3[nH]c4ncc(C)cc4c23)c1 [TAK-901] (top concentration 1000 nM) : 5.36

// recorded selective drug sensitivity score for Cc1sc2c(c1C)C(c1ccc(Cl)cc1)=N[C@@H](CC(=O)Nc1ccc(OCCOCCOCCOCCNc3cccc4c3C(=O)N(C3CCC(=O)NC3=O)C4=O)cc1)c1nnc(C)n1-2 (stereo partly specified) [ARV-825] (top concentration 300 nM) : -10.9

// recorded selective drug sensitivity score for O=C(Nc1ccc(OC(F)(F)Cl)cc1)c1cnc(N2CC[C@@H](O)C2)c(-c2cc[nH]n2)c1 [Asciminib] (top concentration 1000 nM) : 1.62

// recorded selective drug sensitivity score for CCC/C=C/C=C/C(=O)O[C@H]1/C(=C/C(=O)OC)C[C@H]2C[C@H]([C@@H](C)O)OC(=O)C[C@H](O)C[C@@H]3C[C@H](OC(C)=O)C(C)(C)[C@](O)(C[C@@H]4C/C(=C/C(=O)OC)C[C@H](/C=C/C(C)(C)[C@]1(O)O2)O4)O3 [Bryostatin_1] (top concentration 100 nM) : -7.12

###

# Tested on: LC4-1
# measurement_protocol: selective drug sensitivity score (sDSS, relative to normal bone marrow) (sDSS (score)); higher = more potent and effective on the cell line relative to normal bone marrow cells
# experimental_setup: 72 h
readout: selective drug sensitivity score
Please reply with the number alone, leaving off any unit.

// recorded selective drug sensitivity score for Cn1cc(C2=C(c3cn(C4CCN(Cc5ccccn5)CC4)c4ccccc34)C(=O)NC2=O)c2ccccc21 [Enzastaurin] (top concentration 10000 nM) : 3.26

// recorded selective drug sensitivity score for CN1CCN(c2cc(C(=O)Nc3ccc4c(c3)-c3c(c(C(N)=O)nn3-c3ccc(F)cc3)CC4)c(Cl)cn2)CC1 [PHA-408] (top concentration 10000 nM) : 3.98

// recorded selective drug sensitivity score for CC(C)NC[C@@H](C(=O)N1CCN(c2ncnc3c2[C@H](C)C[C@H]3O)CC1)c1ccc(Cl)cc1 [Ipatasertib] (top concentration 10000 nM) : -0.6

// recorded selective drug sensitivity score for O=C(O)c1ccc(-c2c[nH]c3ncc(-c4ccccc4)cc23)cc1C1CCCC1 (top concentration 10000 nM) : -0.94

// recorded selective drug sensitivity score for Nc1nc2[nH]cc(CCc3ccc(C(=O)N[C@@H](CCC(=O)O)C(=O)O)cc3)c2c(=O)[nH]1 [Pemetrexed] (top concentration 10000 nM) : 21

// recorded selective drug sensitivity score for Cc1cc(Nc2cc(N3CCN(C)CC3)nc(Sc3ccc(NC(=O)C4CC4)cc3)n2)n[nH]1 [Tozasertib] (top concentration 10000 nM) : 20.6

// recorded selective drug sensitivity score for Cc1cnc(Nc2ccc(OCCN3CCCC3)cc2)nc1Nc1cccc(S(=O)(=O)NC(C)(C)C)c1 [Fedratinib] (top concentration 10000 nM) : -0.36

// recorded selective drug sensitivity score for O=C(Nc1ccc(OC(F)(F)Cl)cc1)c1cnc(N2CC[C@@H](O)C2)c(-c2cc[nH]n2)c1 [Asciminib] (top concentration 1000 nM) : -1.98

// recorded selective drug sensitivity score for C[C@@H](Oc1cc(-n2cnc3ccc(CN4CCN(C)CC4)cc32)sc1C(N)=O)c1ccccc1C(F)(F)F (top concentration 10000 nM) : 22.6

// recorded selective drug sensitivity score for Cc1c(N)nc([C@H](CC(N)=O)NC[C@H](N)C(N)=O)nc1C(=O)N[C@H](C(=O)N[C@H](C)[C@@H](O)[C@H](C)C(=O)N[C@H](C(=O)NCCc1nc(-c2nc(C(=O)NCCC[S+](C)C)cs2)cs1)[C@@H](C)O)[C@@H](O[C@@H]1O[C@@H](CO)[C@@H](O)[C@H](O)[C@@H]1O[C@H]1O[C@H](CO)[C@@H](O)[C@H](OC(N)=O)[C@@H]1O)c1c[nH]cn1 [Bleomycin] (top concentration 10000 nM) : 0.54

// recorded selective drug sensitivity score for COc1ccc(-c2nc(N3CCOCC3)c3sc(CN(C)c4ncc(C(=O)NO)cn4)cc3n2)cn1 [Fimepinostat (CUDC-907)] (top concentration 10000 nM) : 8.68

// recorded selective drug sensitivity score for COc1ccc(C[C@H](NC(=O)[C@H](C)NC(=O)CN2CCOCC2)C(=O)N[C@@H](Cc2ccccc2)C(=O)[C@@]2(C)CO2)cc1 [ONX-0914] (top concentration 10000 nM) : -1.2

// recorded selective drug sensitivity score for CC(C)(C)NC(=O)[C@H]1CC[C@H]2[C@@H]3CC[C@H]4NC(=O)C=C[C@]4(C)[C@H]3CC[C@]12C [Finasteride] (top concentration 10000 nM) : 2.08

// recorded selective drug sensitivity score for O=C(CCCCCCC(=O)Nc1ccccc1)NO [Vorinostat] (top concentration 10000 nM) : 8.2

// recorded selective drug sensitivity score for CC(C)(C)c1cc(NC(=O)Nc2ccc(-c3cn4c(n3)sc3cc(OCCN5CCOCC5)ccc34)cc2)no1 [Quizartinib] (top concentration 1000 nM) : 4.78

// recorded selective drug sensitivity score for CN(C)c1cc2c(cc1Sc1nc3c(N)nccc3n1CCNCC(C)(C)C)OCO2 [CUDC-305] (top concentration 10000 nM) : -0.98

// recorded selective drug sensitivity score for NC(=O)NO [Hydroxyurea] (top concentration 1000000 nM) : 5.26

// recorded selective drug sensitivity score for CN(C)CC#Cc1ccc(OCCCc2sc(N3CCc4cccc(C(=O)Nc5nc6ccccc6s5)c4C3)nc2C(=O)O)c(F)c1 (top concentration 10000 nM) : 0.36

// recorded selective drug sensitivity score for NCCNc1ccc(NCCN)c2c1C(=O)c1ccncc1C2=O [Pixantrone] (top concentration 10000 nM) : -2.76

// recorded selective drug sensitivity score for FC(F)c1nc2ccccc2n1-c1nc(N2CCOCC2)nc(N2CCOCC2)n1 [ZSTK474] (top concentration 10000 nM) : -0.44

// recorded selective drug sensitivity score for CN1CCN(c2ccc(C(=O)Nc3n[nH]c4ccc(Cc5cc(F)cc(F)c5)cc34)c(NC3CCOCC3)c2)CC1 [Entrectinib] (top concentration 1000 nM) : -1.2

// recorded selective drug sensitivity score for CC[C@]1(O)C[C@H]2CN(CCc3c([nH]c4ccccc34)[C@@](C(=O)OC)(c3cc4c(cc3OC)N(C)[C@H]3[C@@](O)(C(=O)OC)[C@H](OC(C)=O)[C@]5(CC)C=CCN6CC[C@]43[C@@H]65)C2)C1 [Vinblastine] (top concentration 1000 nM) : 13.6
